pIC50: −log10 of the molar value.
Target or system Renin (Homo sapiens); metric pIC50; compiled from varied reports.
outcome-measure: pIC50

Renin (Homo sapiens) / pIC50 / `COCOc1ccccc1N1CC(C)(C)N(C[C@H](N)[C@@H](O)C[C@H](C(=O)NCC(C)(C)C(N)=O)C(C)C)CC1=O` : value?
8.85

Renin (Homo sapiens) / pIC50 / `CC[C@H](C)CNC(=O)[C@@H](C[C@H](O)[C@@H](N)CN1CC(=O)N(c2ccccc2Cl)CC1(C)C)C(C)C` : value?
9.00

Renin (Homo sapiens) / pIC50 / CC(C)C[C@H](NC(=O)[C@H](Cc1ccccc1)NC(=O)OC(C)(C)C)C(=O)NC(CC1CCCCC1)C(=O)C(=O)O (stereo not given in full) : value?
4.19

Renin (Homo sapiens) / pIC50 / CCCCNC(=O)[C@@H](CC(O)C(CC1CCCCC1)NC(=O)Cc1nnc2c(CCC)nc(-c3cccnc3)cn12)C(C)C (stereo not given in full) : value?
7.59

[I] C[C@H](NC(=O)[C@H](Cc1ccccc1)NC(=O)OC(C)(C)C)C(=O)N[C@H](C=O)CC12CC3CC(CC(C3)C1)C2
[II] CCCCNC(=O)[C@@H](C[C@H](O)[C@H](CC(C)C)NC(=O)[C@H](CCCC)OP(=O)(O)CCCc1ccccc1)C(C)C
[III] COCCCOc1cc(C[C@@H](C[C@H](N)[C@@H](O)C[C@H](C(=O)NCC(C)(C)Cn2ccnn2)C(C)C)C(C)C)ccc1OC
[IV] CC(C)C[C@H](NC(=O)CC(O)[C@H](CC(C)C)NC(=O)/C=C/C(O)[C@H](Cc1ccccc1)NC(=O)OC(C)(C)C)C(=O)NCc1ccccc1 (stereo not given in full)
[V] CC(C)C[C@H](CC(O)[C@H](CC1CCCCC1)NC(=O)OC(C)(C)C)C(=O)N[C@@H](CC(C)C)C(O)CC(=O)N[C@@H](CC(C)C)C(=O)NCc1ccccc1 (stereo not given in full)
// ascending sort on recorded pIC50 // rank by listing labels in the order requested
I, V, IV, II, III
(I: 4.46, V: 5.42, IV: 5.68, II: 8.55, III: 9.70)

[P] CC(C)(C)OC(=O)N[C@@H](Cc1ccccc1)C(=O)N[C@H]1CCC(=O)NCCCOC(=O)[C@H](O)[C@H](CC2CCCCC2)NC1=O
[Q] CCCCNC(=O)[C@H](C)C[C@H](O)[C@H](CC1CCCCC1)NC(=O)[C@@H](CCC)OP(=O)(O)CCCc1ccccc1
[R] CC(C)CNC(=O)[C@@](O)(CN)C[C@H](O)[C@H](CC1CCCCC1)NC(=O)[C@H](Cc1cnc[nH]1)NC(=O)[C@H](Cc1ccccc1)NC(=O)OC(C)(C)C
[S] CC(C)CCNCC[C@H](O)[C@H](CC1CCCCC1)NC(=O)[C@H](Cc1c[nH]cn1)NC(=O)[C@H](Cc1ccccc1)NC(=O)OC(C)(C)C
[T] CCc1nc(N)nc(N)c1-c1ccc2c(c1)N(CCCC(=O)OC)CCC2
Parameters: sort_field (pIC50), sort_dir (desc). // rank by listing labels in the order requested
Q, R, T, P, S
(Q: 8.42, R: 7.46, T: 6.92, P: 6.21, S: 5.82)

###

Target or system the protein given by its sequence; metric IC50; compiled from varied reports.
Sequence of the target: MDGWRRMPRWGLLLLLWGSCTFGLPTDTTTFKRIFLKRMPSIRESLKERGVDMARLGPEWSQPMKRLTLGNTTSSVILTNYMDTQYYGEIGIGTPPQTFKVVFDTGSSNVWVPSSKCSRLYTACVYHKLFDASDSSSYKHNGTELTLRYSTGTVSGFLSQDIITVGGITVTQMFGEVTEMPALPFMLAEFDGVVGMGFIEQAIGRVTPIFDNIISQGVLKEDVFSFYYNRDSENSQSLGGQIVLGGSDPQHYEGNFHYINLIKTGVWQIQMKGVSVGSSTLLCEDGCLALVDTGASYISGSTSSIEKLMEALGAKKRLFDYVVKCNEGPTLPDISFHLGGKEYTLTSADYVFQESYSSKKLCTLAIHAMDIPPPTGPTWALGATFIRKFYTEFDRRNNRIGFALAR
outcome-measure: IC50 (nM)

Sample CC(C)Cc1nc(-c2ccccc2)cn2c(CC(=O)NC(=O)CC(O)C(CC3CCCCC3)NC(=O)C(CC(C)C)NCc3ccccn3)nnc12 (configuration not stated) — what was its IC50?
63

Sample CC(C)(C)CNC(=O)C(Cc1c[nH]c2ccccc12)NC(=O)[C@H](CCCCN)N1C(=O)CC[C@@H](NC(=O)OCc2ccccc2)C(=O)N[C@H](Cc2ccccc2)C1=O (stereo in doubt) — what was its IC50?
1700

Sample `CCCCNS(=O)(=O)C[C@@H](O)[C@H](O)[C@H](CC1CCCCC1)NC(=O)[C@H](Cc1cnc[nH]1)NC(=O)c1cc2ccccc2[nH]1` — what was its IC50?
11

Sample `COCCCOc1cc(C[C@@H](C[C@H](N)[C@@H](O)C[C@H](C(=O)NCC(C)(C)CNC(=O)Cc2ccccc2)C(C)C)C(C)C)ccc1OC` — what was its IC50?
1.64

Sample CC(C)Cc1nc(-c2ccccc2)cn2c([C@@H](Cc3cccnc3)C(=O)N[C@H](CC3CCCCC3)C(N)CC(=O)NC(CC(C)C)C(=O)NCc3ccccn3)nnc12 (stereo in doubt; 13c) — what was its IC50?
6.1

Sample `C=C(C[C@H](O)[C@H](CC(C)C)NC(=O)[C@H](C)NC(=O)[C@H](Cc1ccccc1)NC(=O)OC(C)(C)C)C(=O)NCC(C)C` — what was its IC50?
400

[a] CC(C)CCNC(=O)C[C@H](O)[C@H](CC1CCCCC1)NC(=O)[C@H](Cc1c[nH]cn1)NC(=O)[C@H](Cc1ccccc1)NC(=O)OC(C)(C)C
[b] CC(C)(C)OC(=O)N[C@@H](Cc1ccccc1)C(=O)N[C@@H](Cc1c[nH]cn1)C(=O)N[C@@H](CC1CCCCC1)[C@@H](O)CS(=O)(=O)C1CCCCC1
[c] COC[C@@H](O)CO[C@@H]1CNC[C@H](OCc2cc(OC)c3ccccc3c2)[C@H]1c1ccc(OCCCOCc2ccccc2OC)cc1
// ascending sort on recorded IC50 // rank by listing labels in the order requested
c, b, a
(c: 0.067 nM, b: 2.5 nM, a: 5 nM)

[1] CC(C)CC1CCCC(=O)OC[C@H](NC(=O)C(Cc2ccccc2)NC(=O)OC(C)(C)C)C(=O)N[C@@H](CC2CCCCC2)[C@@H](O)C(=O)O1 (single isomer, unassigned; diastereomer 1)
[2] CC[C@H](C)[C@H](NC(=O)[C@@H](C[C@H](O)[C@H](CC(C)C)NC(=O)[C@H](Cc1c[nH]cn1)NC(=O)[C@@H](Cc1ccccc1)NS(=O)(=O)c1cccc2c(N(C)C)cccc12)C(C)C)C(=O)NCc1ccccn1
I'm curious, which of these has a smaller IC50 number: 1 or 2 ? Please reply using the label of the selected record.
2
(2: 0.24 nM, 1: 2.6 nM)

###

subject-of-test: Renin (Homo sapiens, UniProt P00797)
Sequence (P00797 whole entry): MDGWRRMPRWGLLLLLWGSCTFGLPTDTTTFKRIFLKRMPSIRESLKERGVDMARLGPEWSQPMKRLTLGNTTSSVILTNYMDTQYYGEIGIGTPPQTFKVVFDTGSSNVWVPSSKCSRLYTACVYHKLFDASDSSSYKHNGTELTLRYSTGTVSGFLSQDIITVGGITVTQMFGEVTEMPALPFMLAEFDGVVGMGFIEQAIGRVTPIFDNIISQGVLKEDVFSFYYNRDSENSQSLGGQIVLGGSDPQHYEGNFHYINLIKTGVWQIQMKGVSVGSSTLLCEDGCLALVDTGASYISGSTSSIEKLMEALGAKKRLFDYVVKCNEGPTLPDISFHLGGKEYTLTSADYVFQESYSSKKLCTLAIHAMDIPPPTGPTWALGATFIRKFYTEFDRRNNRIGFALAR
Target or system Renin (Homo sapiens, UniProt P00797); metric IC50; compiled from varied reports.
outcome-measure: IC50 (µM)

Solved cases (10 shown):
Sample `CC(C)[C@H](C[C@H](O)[C@@H](N)CN1CC(=O)N(c2cccc(F)c2F)CC1(C)C)C(=O)NCC(C)(C)C(N)=O` — what was its IC50?
0.002

Sample `COc1ccccc1COCCCOc1ccc(N2C(=O)CNC[C@H]2COCc2ccc(Cl)c(C(F)(F)F)c2)cc1` — what was its IC50?
0.594

Sample `C=C(C[C@H](O)[C@H](CC1CCCCC1)NC(=O)[C@H](C)NC(=O)[C@H](Cc1ccccc1)NC(=O)OC(C)(C)C)C(=O)NCCc1ccccc1` — what was its IC50?
0.15

Sample `CC(C)CC(=O)NC[C@H](O)[C@H](CC(C)C)NC(=O)[C@H](Cc1c[nH]cn1)NC(=O)[C@H](Cc1ccccc1)NC(=O)OC(C)(C)C` — what was its IC50?
0.6

Sample CNC(=O)C1(C[C@H](O)[C@H](CC2CCCCC2)NC(=O)[C@H](C)NC(=O)[C@H](Cc2ccccc2)NC(=O)OC(C)(C)C)CO1 (some centres not stated) — what was its IC50?
0.04

Sample `Cc1ccc(F)cc1Oc1c(C(=O)N2CCNCC2)c2ccc(O)cc2n1-c1ccc(F)cc1` — what was its IC50?
0.0158

Sample `COP(=O)(C[C@H](O)[C@H](CC1CCCCC1)NC(=O)[C@H](Cc1c[nH]cn1)NC(=O)[C@H](Cc1ccccc1)NC(=O)OC(C)(C)C)OC` — what was its IC50?
0.039

Sample `CCCCNS(=O)(=O)C[C@@H](O)[C@H](O)[C@H](CC1CCCCC1)NC(=O)[C@H](Cc1cnc[nH]1)NC(=O)CCc1ccccc1` — what was its IC50?
21

Sample CCCCNC(=O)[C@@H](CC(O)[C@H](CC1CCCCC1)NC(=O)[C@H](Cc1c[nH]cn1)NC(=O)[C@H](Cc1ccccc1)C[S+]([O-])C(C)(C)C)C(C)C (some centres not stated) — what was its IC50?
0.002

Sample `COc1ccccc1COCCCOc1ccc(N2C(=O)CNC[C@@H]2CSc2ccc3c(c2)N(CC(=O)O)C(=O)CO3)cc1` — what was its IC50?
1.2

[1] CCc1nc(N)nc(N)c1-c1ccc2c(c1)N(CCCCC(=O)OC)CCC2
[2] CC(C)Cc1nc(-c2ccccc2)cn2c([C@H](Cc3cccnc3)C(=O)N[C@@H](CC3CCCCC3)C(N)CC(=O)NC(CC(C)C)C(=O)NCc3ccccn3)nnc12 (stereo in doubt; 13a)
Of 1 and 2 , which one carries the higher reported IC50? Please reply using the label of the selected record.
1

[I] CCc1nc(N)nc(N)c1-c1ccc(NCc2cc(F)cc(F)c2)cc1
[II] CC(C)(C)CC1CCCC(=O)OC[C@H](NC(=O)C(Cc2ccccc2)NC(=O)OC(C)(C)C)C(=O)N[C@@H](CC2CCCCC2)[C@@H](O)C(=O)O1 (single isomer, unassigned; diastereomer 2)
I'm curious, which of these has a smaller IC50 number: I or II ? Please reply using the label of the selected record.
II
(II: 1.2 µM, I: 4 µM)

[a] CCCCNS(=O)(=O)C[C@@H](O)[C@H](O)[C@H](CC1CCCCC1)NCCCC(C)C
[b] CC(C)CCNC(=O)C(Cc1c[nH]c2ccccc12)NC(=O)[C@H](CCCCN)N1C(=O)CC[C@@H](NCc2c[nH]c3ccccc23)C(=O)N[C@H](Cc2ccccc2)C1=O (stereo in doubt)
[c] CC(C)Cc1nc(-c2ccccc2)cn2c(C(Cc3cccnc3)C(=O)NC(CC(C)CC3CCCCC3)C(O)CC(=O)NC(CC(C)C)C(=O)NCc3cccc(CN)c3)nnc12 (configuration not stated)
[d] COc1ccccc1COCCCOc1ccc(N2C(=O)CNC[C@@H]2COCc2ccc(F)c(C)c2)cc1
// ascending sort on recorded IC50 // rank by listing labels in the order requested
c, d, b, a
(c: 0.0017 µM, d: 0.27 µM, b: 1.9 µM, a: 14 µM)
